- Tested on: Crude diglycosidase
- experiment: Examination of substrate concentration in the conversion into isoflavone aglycons by diglycosidase using soybean materials;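 note: percent of the isoflavone family total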
- Type: biochemical, Penicillium multicolor IAM7153
- conditionParameters: concentrated soybean protein, substrate concentration 30%, heat treatment of enzyme yes, reaction time 6 h
metric: Decomposition efficiency: ratio of each glycoside/aglycon within its isoflavone family (%)

The following compounds have reported results that may help.
| compound | targetOfAssay | resultNumber |
| --- | --- | --- |
| O=c1c(-c2ccc(O)cc2)coc2cc(O[C@@H]3O[C@H](CO)[C@@H](O)[C@H](O)[C@H]3O)cc(O)c12 [genistin] | Crude diglycosidase | 55.6 |
| CC(=O)OC[C@H]1O[C@@H](Oc2cc(O)c3c(=O)c(-c4ccc(O)cc4)coc3c2)[C@H](O)[C@@H](O)[C@@H]1O [acetylgenistin, 6″-O-acetylgenistin] | Crude diglycosidase | 42.4 |
| COc1cc2c(=O)c(-c3ccc(O)cc3)coc2cc1O[C@@H]1O[C@H](COC(=O)CC(=O)O)[C@@H](O)[C@H](O)[C@H]1O [malonylglycitin, 6″-O-malonylglycitin] | Crude diglycosidase | 0.4 |
| COc1cc2c(=O)c(-c3ccc(O)cc3)coc2cc1O[C@@H]1O[C@H](CO)[C@@H](O)[C@H](O)[C@H]1O [glycitin] | Crude diglycosidase | 58.0 |
| CC(=O)OC[C@H]1O[C@@H](Oc2ccc3c(=O)c(-c4ccc(O)cc4)coc3c2)[C@H](O)[C@@H](O)[C@@H]1O [acetly-daidzin] | Crude diglycosidase | 48.4 |
| O=c1c(-c2ccc(O)cc2)coc2cc(O[C@@H]3O[C@H](CO)[C@@H](O)[C@H](O)[C@H]3O)ccc12 [diadzin] | Crude diglycosidase | 49.8 |

a = COc1cc2c(=O)c(-c3ccc(O)cc3)coc2cc1O [glycitein]
b = COc1cc2c(=O)c(-c3ccc(O)cc3)coc2cc1O[C@@H]1O[C@H](COC(C)=O)[C@@H](O)[C@H](O)[C@H]1O [acetylglycitin, 6″-O-acetylglycitin]
Problem: When a and b are compared, which has the higher number for Decomposition efficiency: ratio of each glycoside/aglycon within its isoflavone family? Answer format: the label of the selected item.
Result: b

* * *

- System: Crude diglycosidase
- experiment: Examination of substrate concentration in the conversion into isoflavone aglycons by diglycosidase using soybean materials;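 note: percent of the isoflavone family total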
- Type: biochemical, Penicillium multicolor IAM7153
- conditionParameters: soymilk, substrate concentration 30%, heat treatment of enzyme no, reaction time 1 h
metric: Decomposition efficiency: ratio of each glycoside/aglycon within its isoflavone family

Solved cases (5 shown):
| compound | result |
| --- | --- |
| COc1cc2c(=O)c(-c3ccc(O)cc3)coc2cc1O [glycitein] | 66.9% |
| CC(=O)OC[C@H]1O[C@@H](Oc2cc(O)c3c(=O)c(-c4ccc(O)cc4)coc3c2)[C@H](O)[C@@H](O)[C@@H]1O [acetyl-genistin] | not detected |
| CC(=O)OC[C@H]1O[C@@H](Oc2ccc3c(=O)c(-c4ccc(O)cc4)coc3c2)[C@H](O)[C@@H](O)[C@@H]1O [acetyl-daidzin] | not detected |
| COc1cc2c(=O)c(-c3ccc(O)cc3)coc2cc1O[C@@H]1O[C@H](CO)[C@@H](O)[C@H](O)[C@H]1O [glycitin] | not detected |
| COc1cc2c(=O)c(-c3ccc(O)cc3)coc2cc1O[C@@H]1O[C@H](COC(C)=O)[C@@H](O)[C@H](O)[C@H]1O [acetyl-glycitin] | not detected |

Problem: Using known records, supply Decomposition efficiency: ratio of each glycoside/aglycon within its isoflavone family for O=C(O)CC(=O)OC[C@H]1O[C@@H](Oc2ccc3c(=O)c(-c4ccc(O)cc4)coc3c2)[C@H](O)[C@@H](O)[C@@H]1O [malonyldaidzin, 6″-O-malonyldaidzin]
Result: 43.8%
